System: CDC1551(rv1405c′::GFP) reporter Mtb strain
assay.method.text: microbe, parasite or virus in culture
Type: cell-based, Mycobacterium tuberculosis
study.conditions: Mycobacterium tuberculosis; read-out: rv1405c'::GFP secondary assay NPA% at 10 µM compound
Decide using activity at 10 µM alone. Strictly below 90%: Satisfied. Equal to or above 90%: Not satisfied.

Examples from the recorded data:
Cc1ccccc1OCC(=O)NCc1ccc(C)n1C : Not satisfied
CCCC(C)c1nnc(NC(=O)c2nnc3nc(C)cc(C)n23)s1 (stereo not drawn) : Not satisfied
COc1ccc2c(CC(=O)Nc3nc(CN4CCCCC4)cs3)coc2c1 : Not satisfied
COc1ccc(COc2ccccc2NC(C)=O)cc1Br : Not satisfied
O=c1[nH]c(SCC2OCCc3ccccc32)nc2[nH]ncc12 (stereo not drawn) [RU-0271878, O=C1NC(SCC2OCCC3=C2C=CC=C3)=NC2=C1C=NN2] : Satisfied

Does the reported activity at 10 µM of the following compound sit strictly below 90%? CCc1ccc(NC(=O)C2(N(C)C)Cc3ccccc3C2)cc1
Not satisfied

Now the same for CC(C)(C)n1cc(C#N)c(NS(=O)(=O)c2cccc(F)c2)n1
Satisfied

Note, next up: CCc1nnc(NC(=O)c2sc(CC(C)C)nc2C)s1
Not satisfied

Moving on to the next compound: CCNC(=O)CSc1ccc2c3c(cccc13)C(=O)c1ccccc1-2
Not satisfied

Consider next the compound CC(C)c1cc(C2CCN(C(=O)c3nc(C(C)C)cs3)CC2)[nH]n1 in the same way.
Satisfied

Then what about the compound O=C(O)c1cc(-c2ccc(N3CCOCC3)cc2)nn1-c1ccc(F)cc1 ?
Not satisfied

Also, Cc1ccc(NS(=O)(=O)c2ccc(C)c(F)c2)c(C(=O)O)c1 please.
Satisfied

Can you check Cc1nc(NS(=O)(=O)c2ccc(F)c(F)c2)n(-c2ccc(C#N)cc2)n1 next?
Not satisfied

Next entry: O=C(c1nccc2ccccc12)N1CCN(CC2CCCC2)CC1
Not satisfied

Continue with CCNC(=O)c1ccccc1OCc1nc(-c2ccc3c(c2)OCO3)no1
Satisfied

Also check O=S(=O)(Nc1c(F)cccc1F)c1c(Cl)cccc1Cl
Satisfied

----------
System: CDC1551(rv2390c′::GFP) reporter Mtb strain, response to high [Cl−]
assay.method.text: microbe, parasite or virus in culture
Assay type: cell-based, Mycobacterium tuberculosis
study.conditions: Mycobacterium tuberculosis, 144 h; 10 µM, pH 6.4, 250 mM NaCl, 6 days; read-out: rv2390c'::GFP validation assay NPA% at 10 µM compound
result.type: activity at 10 µM (%)
Your answer is read as %, so omit the unit and give the number.

Can you look up the measured activity at 10 µM of CC(CNC(=O)Nc1cccc(-c2noc(=O)[nH]2)c1)c1ccccc1 (stereo not shown) for me?
66.7

Proceed to CC(NC(=O)c1cc(Cl)ccc1NS(C)(=O)=O)c1ccc2c(c1)OCO2 (stereo not shown)
152

Now give it for COc1ccc2c(CN3CCOCC(CN(C)C)C3)cn(C)c2c1 (stereo not shown) too.
114

----------
Tested on: CDC1551(rv1405c′::GFP) reporter Mtb strain
assay.method.text: microbe, parasite or virus in culture
Format: cell-based, Mycobacterium tuberculosis
study.conditions: Mycobacterium tuberculosis; read-out: rv1405c'::GFP secondary assay NPA% at 10 µM compound
We label by threshold. Values of activity at 10 µM strictly beneath 200% are y. Values of 200% and up are n.

Examples from the recorded data:
CCCSc1ncc(CN2CCN(c3ncnc4[nH]cnc34)CC2)cn1 : y
O=C(Nc1ccc(OCC(F)(F)F)nc1)N1CCCCCCC1 : y
Cc1cc(NS(=O)(=O)Cc2cccc(C(F)(F)F)c2)n(C)n1 : n
Cc1ccc2cc(S(=O)(=O)NCCn3nc(C)c(Cl)c3C)ccc2c1 : y
CC1(C)CC2CC(C)(CN2CC(O)COc2ccc(F)cc2Cl)C1 (centres unmarked) : y
CC(NC(=O)C1Cc2ccccc2O1)c1ccc(Cl)s1 (centres unmarked) : y

Dear reviewer, please state whether OCC(CNc1nc(N2CCCC2)nc(N2CCCC2)n1)Cc1ccco1 (centres unmarked) has activity at 10 µM strictly beneath 200%.
y

// same read-out, input: CCCc1ccccc1NC(N)=S
y

Next compound up: Cc1sc(NS(=O)(=O)c2ccc(F)c(F)c2)c(C(N)=O)c1C
n

Now give it for N=C1SCC(=O)N1c1ncc(Cc2ccccc2)s1 too.
y

Next compound: CCOC(=O)N1C/C(=C/c2cccc(O)c2)C(=O)/C(=C/c2cccc(O)c2)C1
y

Entry to check: O=C(Nc1cccc(C(F)(F)F)c1)c1n[nH]c(=O)c2ccccc12
y

// next record Cc1csc(/C(C#N)=C\c2ccc(C3CC3C)o2)n1 (centres unmarked)
n

Similarly, CCOC(=O)C(C)Sc1nc2c(cnn2-c2ccccc2)c(=O)[nH]1 (centres unmarked) ?
y

Same lookup for CCOC(=O)c1nnc(NC(=O)c2cc(Cl)cc(Cl)c2)s1 , please.
y

Same question for COC(=O)c1sc(NS(=O)(=O)c2ccc(S(C)(=O)=O)c(F)c2)nc1C please.
y

----------
Test system: CDC1551(rv2390c′::GFP) reporter Mtb strain, response to high [Cl−]
assay.method.text: microbe, parasite or virus in culture
Assay type: cell-based, Mycobacterium tuberculosis
study.conditions: Mycobacterium tuberculosis, 144 h; 10 µM, pH 6.4, 250 mM NaCl, 6 days; read-out: rv2390c'::GFP validation assay NPA% at 10 µM compound
result.type: activity at 10 µM

Solved cases (5 shown):
Cc1ccc(NS(=O)(=O)c2ccc(C)c(F)c2)c(C(=O)O)c1 : 60.2%
COc1ccc(COc2ccccc2NC(C)=O)cc1Br : 138%
Cc1c(Cl)cccc1S(=O)(=O)Nc1nn(C(C)(C)C)cc1C#N : 53.8%
COc1ccc2c(CC(=O)Nc3nc(CN4CCCCC4)cs3)coc2c1 : 99.2%
CCOC(=O)Cc1cc(=O)n2nc(C(F)(F)F)c(-c3ccccc3)c2[nH]1 : 148%

Record lookup: for CDC1551(rv2390c′::GFP) reporter Mtb strain, response to high [Cl−], what activity at 10 µM belongs to O=C(c1cnc2ccccn12)N1CCCC(CCc2cccc(C(F)(F)F)c2)C1 (stereo not shown) ?
131%

Again, but for CCOc1ccc(OCCN(CC)CC(O)c2ccc(C)cc2)cc1 (stereo not shown)
111%

----------
List of activity at 10 µM values.
System: CDC1551(rv2390c′::GFP) reporter Mtb strain, response to high [Cl−]
assay.method.text: microbe, parasite or virus in culture
Format: cell-based, Mycobacterium tuberculosis
study.conditions: Mycobacterium tuberculosis, 144 h; 10 µM, pH 6.4, 250 mM NaCl, 6 days; read-out: rv2390c'::GFP validation assay NPA% at 10 µM compound
Form entry: value (%) — number only.

As a guide, the following entries are already answered.
CC(NC(=O)C1Cc2cc(Cl)ccc2O1)c1ccc(F)c(F)c1 (stereo not drawn) : 152
CCCSc1ncc(CN2CCN(c3ncnc4[nH]cnc34)CC2)cn1 : 124
N#Cc1nc(NC(=O)c2ccc(N3CCCC3)c(F)c2)[nH]c1C#N : 143
CCCC(C)c1nnc(NC(=O)c2nnc3nc(C)cc(C)n23)s1 (stereo not drawn) : 116
CN(CC(O)c1ccccc1Cl)C1CCc2ccccc21 (stereo not drawn) : 138

What activity at 10 µM appears in the records for this molecule with CDC1551(rv2390c′::GFP) reporter Mtb strain, response to high [Cl−]? Cc1cccc(C)c1OC1CCN(c2cncc(C(N)=O)n2)CC1
136

What about this molecule? COc1ccc(F)c(-c2cc3c(cc2C(N)=O)OCO3)c1
147

Next record, please: CCN(CC)c1ccc2c(NC3CCCCC3)nc(=O)oc2c1
161

----------
System: CDC1551(rv2390c′::GFP) reporter Mtb strain, response to high [Cl−]
assay.method.text: microbe, parasite or virus in culture
Format: cell-based, Mycobacterium tuberculosis
study.conditions: Mycobacterium tuberculosis, 144 h; 10 µM, pH 6.4, 250 mM NaCl, 6 days; read-out: rv2390c'::GFP validation assay NPA% at 10 µM compound
Listing: activity at 10 µM of selected molecules
Express the result in % but write the number alone.

# annotated cases, reported activity at 10 µM shown
CCCn1ncc(C(=O)NC(C)C(=O)Nc2ccc(F)cc2C)c1C (stereo not shown) [RU-0232065] : 119
CCc1nc(C(C#N)C(=O)/C=C/c2ccc(NC(C)=O)cc2)sc1C (stereo not shown) [RU-0204780] : 112
CCOc1cc(F)ccc1NC(=O)Nc1cccc(C#N)c1 [RU-0273629] : 203
CC(C)Cc1cc(C(=O)N2CCOC(CCCc3ccccc3)C2)[nH]n1 (stereo not shown) [RU-0230474] : 118
Cc1sc(NS(=O)(=O)c2ccc(F)c(F)c2)c(C(N)=O)c1C [RU-0205217] : 128
O=C(O)c1cc(-c2ccc(N3CCOCC3)cc2)nn1-c1ccc(F)cc1 [RU-0206470] : 111

Sample Cc1ccc(NC(=O)[C@@H]2CCCN2S(=O)(=O)c2ccccc2F)cc1 [RU-0270461] — what was its activity at 10 µM?
116
